The measured values listed here are drawn from paper PMC7734321.

- STUDY SYSTEM: T1, NTH1 (endonuclease III) (Homo sapiens, UniProt P78549 1-304)
- T1 sequence: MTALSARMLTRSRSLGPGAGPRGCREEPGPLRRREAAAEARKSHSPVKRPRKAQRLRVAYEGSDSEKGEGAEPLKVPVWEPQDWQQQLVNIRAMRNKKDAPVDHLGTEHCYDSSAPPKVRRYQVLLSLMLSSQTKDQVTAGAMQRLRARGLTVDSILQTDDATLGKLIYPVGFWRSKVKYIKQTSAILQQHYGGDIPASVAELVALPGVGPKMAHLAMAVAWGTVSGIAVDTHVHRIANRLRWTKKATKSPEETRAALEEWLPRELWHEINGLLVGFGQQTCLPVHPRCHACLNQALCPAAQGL
- PROTOCOL DESCRIPTION: MST; MST: 50 mM Tris-HCl pH 7.5, 50 mM KCl, 1 mM EDTA, 1 mM DTT, 7% glycerol, 25 C, 10 min, 0.5 uM DNA; authors call Kd values estimates only
- STATED CONDITIONS: protein: recombinant; label: 5'-FAM, 3'-BHQ1; G-quadruplex
READOUT TYPE: Kd
# number then unit; no other words

Any idea what Kd was measured for TTAGGGTTAGGGTTAGGGTTAGGGTT (structured_DNA, T14 = thymine glycol) [Q4-Tg] ?
1300 nM
